assay: Cytotoxicity against human Raji cells assessed as viability at 10^-7 M; format: cell-based; conditions: read-out: Activity
experimental-readout: viability at 0.1 µM (%)
Answers are plain numbers, in %.

Completed entries (count: 4):
CC1(C)CC[C@@H]2CC(=O)O[C@@H](CO)CC(=O)O[C@@H]3C[C@@H](CCCCc4cccc(O)c4)O[C@@]1(C3)O2 :: 60
CO[C@@H](CC[C@H](C)[C@H]1O[C@@]23C[C@H](OC(=O)C[C@H]([C@@H](C)O)OC(=O)C[C@](O)(O2)[C@H](C)CC3(C)C)[C@@H]1C)c1cc(O)ccc1Br :: 50
CC1(C)CC[C@@H]2CC(=O)O[C@@H](CO)CC(=O)O[C@@H]3C[C@@H](CCCCc4ccccc4)O[C@@]1(C3)O2 :: 60
CCC/C=C/C=C/C(=O)O[C@H]1/C(=C/C(=O)OC)C[C@H]2C[C@H]([C@@H](C)O)OC(=O)C[C@H](O)C[C@@H]3C[C@H](OC(C)=O)C(C)(C)[C@](O)(C[C@@H]4C/C(=C/C(=O)OC)C[C@H](/C=C/C(C)(C)[C@]1(O)O2)O4)O3 :: 60

Field: next molecule
Request: For the molecule CCCCCCCCCCCCCC(=O)O[C@@H]1[C@@H](C)[C@@]2(O)[C@@H](C=C(CO)C[C@]3(O)C(=O)C(C)=C[C@@H]23)[C@@H]2C(C)(C)[C@]12OC(C)=O [PHORBOL MYRISTATE ACETATE] , give its reported viability at 0.1 µM.
Response: 60
